- Tested on: HeLa MZ
- Experiment description: filipin (cholesterol) integrated intensity within LBPA endosomes, Z-score; higher = more cholesterol in LBPA endosomes
- Measurement setup: compound concentration in added solution (µM; 5 µl added to 20 µl cells): 10; 18 h
Structures can show the parent of a compound that is named as a salt.
Entries annotated with measured filipin (z-score)
Keep the answer to the number alone.

CC(C)(C)CC(C)(C)c1ccc(OCCOCC[N+](C)(C)Cc2ccccc2)cc1 [Benzethonium chloride] : 0.517
CCCCOc1ccc(OCCCN2CCOCC2)cc1 [Pramoxine hydrochloride] : 0.197
CCCNC(C)C(=O)Nc1c(C)csc1C(=O)OC (stereo not drawn) [Articaine hydrochloride] : -0.461

Could you now look at the following molecule, please?
**Query** Item under review: Cc1c(C)c2c(c(C)c1O)CCC(C)(COc1ccc(CC3SC(=O)NC3=O)cc1)O2 (stereo not drawn) [Troglitazone] . Reported filipin (z-score)?
**Result** -0.355
